The values you see were collected from ChEMBL document CHEMBL1201862.

System: IGROV-1
Test Description: NCI tumour cell line growth inhibition, 48 h
Calls of active or inactive are those of the source. Cut-off read from the data, not from the text of the source: active = GI50 up to about 1.1 µM and inactive = higher.
Assign a class; possible classes are Yes = active, No = inactive

The examples below pair each entry with its known result.
[[record]]
chemical_string = "COc1ccc2oc(=N)c(C(N)=O)cc2c1"
target_system = "IGROV-1"
assigned_label = "No"

[[record]]
chemical_string = "COc1cc(NS(C)(=O)=O)ccc1N1Cc2c[nH]c3ccc4nccc1c4c23"
target_system = "IGROV-1"
assigned_label = "No"

[[record]]
chemical_string = "Nc1nc(OCC2CCCCC2)c2nc[nH]c2n1"
target_system = "IGROV-1"
assigned_label = "No"


Call for entry COc1ccc2c(c1)OCC1=C2Oc2ccccc2C1 :
No

Call for entry c1ccc(/N=c2\snc3scc(-c4ccccc4)n23)cc1 :
No

Call for entry CC(/C=C/c1ncccc1OCCCCCC(=O)O)=N\NC1=NCCN1 :
No

Call for entry CN(C)c1cccc(-c2cc(O)c3cc4c(cc3n2)OCO4)c1 :
Yes

----------
System: SK-MEL-5
Test Description: NCI tumour cell line growth inhibition, 48 h
Calls of active or inactive are those of the source. No stated cut-off is given here; in the data, active = GI50 up to about 1.1 µM and inactive = higher.
Assign a class; possible classes are true (1) for active, false (0) for inactive

[[record]]
molecule = "COC(=O)/C(=N\\O)C(C(=O)C=C(C)C)C(=O)C(=O)Nc1ccccc1C (stereo unspecified)"
assigned_label = "false (0)"

[[record]]
molecule = "CSC1=N/C(=C\\c2ccc(C)cc2)C(=O)N1CN1CCOCC1"
assigned_label = "false (0)"

[[record]]
molecule = "O=C1c2ccccc2C(=O)c2c(O)ccc(O)c21"
assigned_label = "false (0)"


Call for entry CC(C)=CCC[C@@H](C)c1c2nc3ccccc3sc-2c(C)c(=O)c1O :
false (0)

Call for entry O=C(N/N=C/C=C/c1ccccc1)c1ccccc1Nc1ccccc1C(=O)N/N=C/C=C/c1ccccc1 :
false (0)

Call for entry CC1(O)C=CC2CCC1C2O (stereo unspecified) :
false (0)

Call for entry Nc1ccn(CCCC(c2ccccc2)P(=O)(O)O)c(=O)n1 (stereo unspecified) :
false (0)

Call for entry CN(C)CCOc1ccc2[nH]c(C(=O)N3CC(CCl)c4c3cc([N+](=O)[O-])c3ccccc43)cc2c1 (stereo unspecified) :
false (0)

Call for entry C=CCC1C(=O)CC2(C)C(CC=C)C(=O)CC12C (stereo unspecified) :
false (0)

Call for entry CCn1c2ccccc2c2ccc3c(c21)C(=O)C=CC3=O :
true (1)

Call for entry NC1c2c(Cl)sc(Cl)c2C(=O)C1O (stereo unspecified) :
false (0)

----------
System: OVCAR-8
Test Description: NCI tumour cell line growth inhibition, 48 h
Activity calls are given as the source filed them. Cut-off read from the data, not from the text of the source: active = GI50 up to about 1.1 µM and inactive = higher.
Readout: GI50

[[record]]
molecule = "C[C@H](NC(=O)OC1C2C=CC(O)C1CC2)c1ccccc1 (stereo partly specified)"
readout = "GI50"
endpoint_result = "> 100 µM (inactive)"

[[record]]
molecule = "CCOC(=O)/C(C(=O)c1ccccc1)=C1/NCCN1C"
readout = "GI50"
endpoint_result = "> 100 µM (inactive)"

[[record]]
molecule = "CC(C)(C)OC(=O)N(CCCN)CCCCN(CCCN)C(=O)OC(C)(C)C"
readout = "GI50"
endpoint_result = "> 100 µM (inactive)"

[[record]]
molecule = "C=C1C(=O)O[C@@H]2C[C@@]3(C)CCCC(=C)[C@@H]3C[C@H]12.C=C1C(=O)O[C@@H]2C[C@@]3(C)CCC[C@H](C)C3=C[C@H]12"
readout = "GI50"
endpoint_result = "1.6 µM (inactive)"

[[record]]
molecule = "CSc1ccc2c(cc1=O)[C@@H](NC(=O)c1ccc(Cl)cc1)CCc1cc(O)c(O)c(O)c1-2"
readout = "GI50"
endpoint_result = "50 µM (inactive)"

[[record]]
molecule = "Nc1ccn(CCCC(c2ccccc2)P(=O)(O)O)c(=O)n1 (stereo unspecified)"
readout = "GI50"
endpoint_result = "> 100 µM (inactive)"


Hi! Can you tell me GI50 for each of these molecules?
1. CC1(O)C=CC2CCC1C2O (stereo unspecified)
2. C/C(=N\N=C(/S)N1CC2CCC(CC2)C1)c1ccncn1
3. O=c1nc(Oc2c(F)c(F)c(F)c(F)c2F)ccn1C1OC(CO)C(O)C1O (stereo unspecified)
4. Nc1ncc(Br)c(NCC2(CO)CCC2)n1
5. O=C(O)CN(c1ccc(F)cc1)S(=O)(=O)c1ccccc1

["> 100 µM (inactive)", "< 0.01 µM (active)", "> 100 µM (inactive)", "> 100 µM (inactive)", "> 100 µM (inactive)"]
